Target: pooled human IgG
Metric name: Enzyme Activity Endpoint Assay: Fab′2 (ng/µL)
Numbers only, in ng/µL.

PRT-9 (protein) MANQEIRYSEETPYHVTSVWTKGVTPPANFTQGEDVFHAPYVANQGWYDITKTFNGKDDLLCGAATAGNMLHWWFDQNKEQIERYLKEHPEKQKINFNGEQMFDVKEAIDTKNSQLDSKLFEYFKEKAFPYLSTKHLGVFPDHVIDMFINGYRLSLTNHGPTPVKEGSKDPRGGIFDAVFTRGDQSKLLTSRHDFKEKTLKEISDLIKKELTEGKALALSHTYANVRINHVINLWGADFDSNGNLKAIYVTDSDSNASIGMKKYFVGVNSAGKVAISAKEIKEDNIGAQVLGLFTLSSGQDIWNQTN = 39
PRT-12 (protein) MANQEIRYSEVTPYHVTSVWTKGVTPPADFTQGEDVFHAPYKANQGWYDITKTFNGKDDLLCGAATAGNMLHWWFDQNKDQIERYLKEHPEKQKINFNGEQMFDVKEAIDTKDSQTDSKLFEYFKEKAFPYLSTKHLGVFPDHVIDMFINGYRLSLTNHGPTPVKRGSKDPRGGFFDAVFTRGDQSKLLTSRHDFKEKTLNEISDLIKKELTEGKALGLSHTYANVRINHVINLWGADFDSNGNLEAIYVTDSDSNASIGMKKYFVGVNSAGKVAISAKEIKEDNIGAQVLGLFTLSTGQDIWEQTN = 47

Okay, here is my list. What is Enzyme Activity Endpoint Assay: Fab′2 for each of these?
1. PRT-15 (protein) MANQEIRYSEVTPYTITSVWTKGVTPPTNFTQGEDVFHAPYVANQGWYDITKTFNGKDDLLCGAATAGNMLHWWFDQNKDEIERYLKEHPEKQKINFNGEQMFDVKEAIDTKDSQTDSKLFEYFKDKAFPYLSTKHLGVFPDHVIDMFINGYRLSLTNHGPTPVKRGSKDPRGGIFDAVFTRGDQSKLLTSRHDFKEKNLNEISDLIKQELTEGKALGLSHTYANVRINHVINLWGADFNSNGNLKAIYVTDSDSNASIGMKKYFVGVNKAGKVAISAKEIKGDNIGAQVLGLFTLSTGQDIWEQTN
2. PRT-38 (protein) MANQEIRYSEVTPYHVTSVWTKGVTPPANFTQGEDVFHAPYVANQGWYDITKTFNGKDDLLCGAATAGNMLHWWFDQNKDQIKRYLEEHPEKQKINFNGEQMFDVKEAIDTKNHQLDSKLFEYFKEKAFPYLSTKHLGVFPDHVIDMFINGYRLSLTNHGPTPVKEGSKDPRGGIFDAVFTRGDQSKLLTSRHDFKEKNLKEISDLIKKELTEGKALGLSHTYANVRINHVINLWGADFDSNGNLEAIYVTDSDSNASIGMKKYFVGVNSAGKVAISAKEIKEDNIGAQVLGLFTLSTGQDSWNQTN

Solution:
1. 52
2. 46
